Hello, the source for this data is patent US20260015350A1, in case you need it.

Target: KRas^G12R (Homo sapiens, UniProt P01116, G12R)
Construct: Biotinylated KRas (corresponding to amino acids 1-169, produced at Accelegan Inc.); biotin (biotinylated); purchased Accelegan Inc
Sequence (P01116 1-169 isoform P01116-2 G12R): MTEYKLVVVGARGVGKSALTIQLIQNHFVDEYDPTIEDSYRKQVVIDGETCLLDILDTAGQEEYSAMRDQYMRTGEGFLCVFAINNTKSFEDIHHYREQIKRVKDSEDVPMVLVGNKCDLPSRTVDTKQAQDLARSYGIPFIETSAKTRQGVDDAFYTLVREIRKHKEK
Assay: KRas binding assay (TR-FRET tracer displacement), KRas G12R
OBSERVABLE: IC50 (nM)
# number only, unit nM dropped from output

COMPOUND	UNIT STRING	IC50
Cc1cc2[nH]ncc2c(-c2ncc3c(N4CCCC5(CNC(=O)N5)C4)nc(OCC45CCCN4CCC5)nc3c2F)c1C (centres unmarked)	nM	61
CCc1c(F)ccc2cc(O)cc(-c3ncc4c(N5C[C@@H]6OCCN[C@@H]6C5)nc(OC[C@@]56CCCN5C[C@H](F)C6)nc4c3F)c12	nM	2030
Oc1cc(-c2ncc3c(N4C[C@@H]5C[C@H](C4)[C@H](O)C5)nc(OC[C@@]45CCCN4C[C@H](F)C5)nc3c2F)c2ccccc2c1C(F)(F)F	nM	3740

Query string: Provide only the value of recorded IC50 for CCc1c(F)ccc2cc(O)cc(-c3ncc4c(N5C[C@@H]6C[C@]6(c6nc(C)no6)C5)nc(OC[C@@]56CCCN5C[C@H](F)C6)nc4c3F)c12
Result string: 99

Query string: Output IC50 of Cc1cc2[nH]ncc2c(-c2ncc3c(N4CCCC5(CC(O)C5)C4)nc(OCC45CCCN4CCC5)nc3c2F)c1C (centres unmarked)
Result string: 520

Query string: Item Cc1c(O)cc2ccccc2c1-c1ncc2c(N3C[C@@H]4C[C@H](C3)[C@H](O)C4)nc(OC[C@@]34CCCN3C[C@H](F)C4)nc2c1F : provide IC50
Result string: 160

Query string: Look up and report measured IC50 for this entry: CCc1c(F)ccc2cc(O)cc(-c3ncc4c(N5CCC[C@@](C)(O)C5)nc(OCC56CNCC5C6)nc4c3F)c12 (some centres unmarked)
Result string: 8

Query string: Consider the compound CCc1c(F)ccc2cc(O)cc(-c3ncc4c(N5CCC6(CC5)OCCC6C#N)nc(OC[C@@]56CCCN5C[C@H](F)C6)nc4c3F)c12 (some centres unmarked) . State its measured IC50.
Result string: 911

Query string: Tell me its IC50 given CCc1c(F)ccc2cc(O)cc(-c3ncc4c(N5CCC[C@@](C)(O)C5)nc(OCC56CCCN5CC(=C(F)F)C6)nc4c3F)c12 (some centres unmarked) as the entry.
Result string: 2

Query string: Give IC50 for the following compound: CCc1c(F)ccc2cc(O)cc(-c3ncc4c(N5CCC[C@@](C)(O)C5)nc(OCC5(CN(C)C)CC56CC6)nc4c3F)c12 (some centres unmarked)
Result string: 5

Query string: Please indicate IC50 recorded for Oc1cc(-c2ncc3c(N4C[C@@H]5C[C@H](C4)[C@H](O)C5)nc(OC[C@@]45CCCN4C[C@H](F)C5)nc3c2F)c2ccccc2c1Br
Result string: 778

Query string: Tell us which IC50 value is on record for CCc1c(F)ccc2cc(O)cc(-c3ncc4c(NCc5cnn(C(=O)N(C)C)c5N)nc(OC[C@@]56CCCN5C[C@H](F)C6)nc4c3F)c12
Result string: 17

Query string: Please indicate IC50 recorded for CCc1c(F)ccc2cc(O)cc(-c3ncc4c(N5Cc6n[nH]c(C(N)=O)c6C5)nc(OC[C@@]56CCCN5C[C@H](F)C6)nc4c3F)c12
Result string: 621

Query string: Respond only with IC50 recorded for CCc1c(F)ccc2cc3[nH]ncc3c(-c3ncc4c(N5CCC[C@@](C)(O)C5)nc(OC[C@@]56CCCN5C[C@H](F)C6)nc4c3F)c12
Result string: 4

Query string: Tell me IC50 reported for CCc1c(F)ccc2c(F)c(O)cc(-c3ncc4c(N5C[C@@H]6C[C@H](C5)[C@H](O)C6)nc(OC[C@@]56CCCN5C[C@H](F)C6)nc4c3F)c12
Result string: 4

Query string: Quote IC50 reported for CCc1c(F)ccc2cc(O)cc(-c3ncc4c(N5C[C@@H]6[C@@H](CS(N)(=O)=O)NC(=O)[C@@H]6C5)nc(OC[C@@]56CCCN5C[C@H](F)C6)nc4c3F)c12 please.
Result string: 1250

Query string: Indicate its recorded IC50; the compound in question is CCc1c(F)ccc2cc(O)cc(-c3ncc4c(N5CC6CCC(C5)C6C#N)nc(OC[C@@]56CCCN5C[C@H](F)C6)nc4c3F)c12 (single isomer, unassigned) [Example 560]
Result string: 182

---

Target: KRas^G12D (Homo sapiens, UniProt P01116, G12D)
Construct: Biotinylated KRas (corresponding to amino acids 1-169, produced at Accelegan Inc.); biotin (biotinylated); purchased Accelegan Inc
Sequence (P01116 1-169 isoform P01116-2 G12D): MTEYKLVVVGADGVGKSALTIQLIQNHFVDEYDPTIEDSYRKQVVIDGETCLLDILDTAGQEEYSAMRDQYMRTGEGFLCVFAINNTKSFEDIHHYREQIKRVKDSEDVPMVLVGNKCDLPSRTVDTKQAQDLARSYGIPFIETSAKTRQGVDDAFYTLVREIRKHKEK
Experiment: KRas binding assay (TR-FRET tracer displacement), KRas G12D
# maps each entry to its IC50
Field format: number, assumed nM, no unit text.

Query string: Please look at this molecule and report its IC50: CN(C)C(=O)OC[C@@H]1CC[C@@]2(COc3nc(N4CCC[C@@](C)(O)C4)c4cnc(-c5cc(O)cc6ccc(F)c(F)c56)c(F)c4n3)CCCN12 [Example 548]
Result string: 2

---

Target: KRas^G12R (Homo sapiens, UniProt P01116, G12R)
Construct: Biotinylated KRas (corresponding to amino acids 1-169, produced at Accelegan Inc.); biotin (biotinylated); purchased Accelegan Inc
Experiment: KRas binding assay (TR-FRET tracer displacement), KRas G12R
Reported log10 IC50 is given for each of the following molecules.
Field: value | Transform: log10 | Quantity: IC50 | Unit: nM

Here is how some molecules turned out for log10 IC50.
MOLECULE	log10 IC50
CCc1c(F)ccc2cc(O)cc(-c3ncc4c(N5CC6CCC(C5)C6CCO)nc(OC[C@@]56CCCN5C[C@H](F)C6)nc4c3F)c12 (stereo partly drawn) [Example 847]	1.59
O[C@@H]1C[C@H]2C[C@@H]1CN(c1nc(OC[C@@]34CCCN3C[C@H](F)C4)nc3c(F)c(-c4cccc5ccccc45)ncc13)C2 [Example 724]	2.86

Query string: Check the records and state log10 IC50 for CCc1c(F)ccc2cc(O)cc(-c3ncc4c(N5CCCC6(CCS6)C5)nc(OC[C@@]56CCCN5C[C@H](F)C6)nc4c3F)c12 (stereo partly drawn) [Example 838]
Result string: 1.18

Query string: Query log10 IC50 for CC1(O)COCCN(c2nc(OCC34CCCN3CCC4)nc3c(F)c(-c4cc(O)cc(Cl)c4C4CC4)ncc23)C1 (racemic) [Example 740]
Result string: 1.04

Query string: Specify log10 IC50 for CCc1c(F)ccc2cc(O)cc(-c3ncc4c(N5CC6(CO)CC(C7CC7)(C5)C6)nc(OC[C@@]56CCCN5C[C@H](F)C6)nc4c3F)c12 [Example 613] and stop.
Result string: 4.44

Query string: Tell us which log10 IC50 value is on record for CCc1c(F)ccc2cc(O)cc(-c3ncc4c(N5CCC[C@@](C)(O)C5)nc(N5CC(N(C)C)C5)nc4c3F)c12 [Example 533]
Result string: 2.08

Query string: Let me know recorded log10 IC50 for CCc1c(F)ccc2cc(O)cc(-c3ncc4c(N5CC6CCC(CCC(=O)NC)(C6)C5)nc(OC[C@@]56CCCN5C[C@H](F)C6)nc4c3F)c12 (stereo partly drawn) [Example 909] , thanks.
Result string: 0.85

Query string: Determine its reported log10 IC50: CCc1c(F)ccc2cc(O)cc(-c3ncc4c(N5CCOCC6(CCS(=O)(=O)CC6)C5)nc(OC[C@@]56CCCN5C[C@H](F)C6)nc4c3F)c12 [Example 667]
Result string: 2.51

Query string: // Input: CCc1c(F)ccc2cc(O)cc(-c3ncc4c(N5CCCC(C6CCNC6=O)C5)nc(OC[C@@]56CCCN5C[C@H](F)C6)nc4c3F)c12 (single isomer, unassigned) [Example 618] . Output its log10 IC50 only.
Result string: 2.29

Query string: Consider the molecule CCc1c(F)ccc2cc(O)cc(-c3ncc4c(N5C[C@H]6C[C@@H](C5)[C@@H](O)[C@@H]6O)nc(OC[C@@]56CCCN5C[C@H](F)C6)nc4c3F)c12 (single isomer, unassigned) [Example 571] and give its recorded log10 IC50.
Result string: 1.77

---

System: KRas-mediated phosphorylation of ERK in H460 cells
Experiment: Inhibition of KRas-mediated phosphorylation of ERK (Cisbio HTRF pERK), H460 cells
Assay type: cell-based
Conditions: Homo sapiens, NCI-H460, HTRF pERK
IC50 by entry:
# value in nM; strip the unit string

MOLECULE	IC50, nM
C/C=C1\CN2CCCC2(COc2nc(N3C[C@@H]4C[C@H](C3)[C@H](O)C4)c3cnc(-c4cc(O)cc5ccc(F)c(CC)c45)c(F)c3n2)C1 (stereo partly drawn) [Example 938]	4
C[C@@H]1C[C@@H]1c1c(Cl)cc(O)cc1-c1ncc2c(N3C[C@H]4CC[C@@H](C3)N4)nc(OC[C@@]34CCCN3C/C(=C\F)C4)nc2c1F [Example 946]	494
C[C@@H]1C[C@@H]1c1c(Cl)cc(O)cc1-c1ncc2c(N3CCCn4nc(C(=O)N(C)C)cc4C3)nc(OC[C@@]34CCCN3C[C@H](F)C4)nc2c1F [Example 933]	287
CCc1c(F)ccc2cc(O)cc(-c3ncc4c(N5C[C@@H]6C[C@H](C5)[C@H](O)[C@@H]6O)nc(OC[C@@]56CCCN5C[C@H](F)C6)nc4c3F)c12 [Example 568]	17
CCc1c(F)ccc2cc(O)cc(-c3ncc4c(N5CCCC(Cn6cccn6)C5)nc(OC[C@@]56CCCN5C[C@H](F)C6)nc4c3F)c12 (stereo partly drawn) [Example 610]	256

Here is the next item to consider.
Query string: Query IC50 for CCc1c(F)ccc2cc(O)cc(-c3ncc4c(N5CCC[C@@](C)(O)C5)nc(OC[C@@]56CCCN5[C@H](COC)CC6)nc4c3F)c12 [Example 826]
Result string: 30
